- Test system: C26 (solid murine colon carcinoma)
- TEST SUMMARY: Cytotoxicity by MTT assay, C26 cells
- Format: cell-based
- CONDITION NOTES: Mus musculus, 48 h, incubation of 2 days, read-out: IC50 values, inhibition of growth of cells
Please provide measured IC50 for the entries that follow.

Prompt: Checklist item: IC50 tested on C26 (solid murine colon carcinoma), entry O=C(O)CCC(=O)c1ccc(-c2ccccc2)cc1 [Fenbufen, 4-(biphenyl-4-yl)-4-oxobutanoic acid, reference compound] , value?
Response: > 100 µM

Prompt: Checklist item: IC50 tested on C26 (solid murine colon carcinoma), entry CCCCC(CC)C(=O)NCCCCNC(=O)CCC(=O)c1ccc(-c2ccccc2)cc1 (stereo not shown) [compound 13] , value?
Response: 15 µM

Prompt: Checklist item: IC50 tested on C26 (solid murine colon carcinoma), entry Cc1ccc(C)c(OCCCC(C)(C)C(=O)NCCCCNC(=O)CCC(=O)c2ccc(-c3ccccc3)cc2)c1 [compound 12] , value?
Response: 15 µM

Prompt: Checklist item: IC50 tested on C26 (solid murine colon carcinoma), entry C=C(CC)C(=O)c1ccc(OCC(=O)NCCCCNC(=O)CCC(=O)c2ccc(-c3ccccc3)cc2)c(Cl)c1Cl [compound 14] , value?
Response: 35 µM
